Test: in vitro
Conditions: human, cerebrospinal or other body fluid
Ends that are not written are not given here.
reported-endpoint: half-life at 200 μM

Incoming: Need half-life at 200 μM of WYKGDKFLYLQNGIEAIADF-NH2 [P6 peptide] , thanks.
Outgoing: ~4 h
